# credit: patent US7626042B2

test system: NF-κB activation; experiment: Inhibitory activity against NF-κB activation, luciferase reporter assay under TNF-α stimulation; type: cell-based, human; conditions: Drug Concentration 10 μg/mL; HepG2 cells, TNF-α 40 ng/ml, 4 hours
Consider the following compounds; for each one, report its Inhibitory Ratio of NF-κ B Activation(%).
Provide only the numeric value, understood in %.

Ask | Which value of Inhibitory Ratio of NF-κ B Activation(%) has been reported for `O=C(CNC(=O)OCc1ccccc1)Oc1ccc(Cl)cc1C(=O)Nc1cc(C(F)(F)F)cc(C(F)(F)F)c1` in the records?
Reply | 98.7

Ask | Inhibitory Ratio of NF-κ B Activation(%) for `CC(C)[C@H](N)C(=O)Oc1ccc(Cl)cc1C(=O)Nc1cc(C(F)(F)F)cc(C(F)(F)F)c1.Cl` ?
Reply | 97.2

Ask | Inhibitory Ratio of NF-κ B Activation(%) lookup needed for `O=C(COc1cccc(Cl)c1Cl)Oc1ccc(Cl)cc1C(=O)Nc1cc(C(F)(F)F)cc(C(F)(F)F)c1` , thanks.
Reply | 99.4

Ask | Request the reported Inhibitory Ratio of NF-κ B Activation(%) associated with `CC(C)(C)OC(=O)CC[C@H](NC(=O)OC(C)(C)C)C(=O)Oc1ccc(Cl)cc1C(=O)Nc1cc(C(F)(F)F)cc(C(F)(F)F)c1`
Reply | 97.2

Ask | What does the record list as Inhibitory Ratio of NF-κ B Activation(%) for `O=C(O)CN(CC(=O)O)C(=O)OCOc1ccc(Cl)cc1C(=O)Nc1cc(C(F)(F)F)cc(C(F)(F)F)c1` ?
Reply | 83.5

Ask | I'd like to know its Inhibitory Ratio of NF-κ B Activation(%). The compound in question is `O=C(COc1ccccc1)Oc1ccc(Cl)cc1C(=O)Nc1cc(C(F)(F)F)cc(C(F)(F)F)c1`
Reply | 97.5
